# tested target: Adenosine receptor A1 (Homo sapiens)
# Sequence (P30542 whole entry): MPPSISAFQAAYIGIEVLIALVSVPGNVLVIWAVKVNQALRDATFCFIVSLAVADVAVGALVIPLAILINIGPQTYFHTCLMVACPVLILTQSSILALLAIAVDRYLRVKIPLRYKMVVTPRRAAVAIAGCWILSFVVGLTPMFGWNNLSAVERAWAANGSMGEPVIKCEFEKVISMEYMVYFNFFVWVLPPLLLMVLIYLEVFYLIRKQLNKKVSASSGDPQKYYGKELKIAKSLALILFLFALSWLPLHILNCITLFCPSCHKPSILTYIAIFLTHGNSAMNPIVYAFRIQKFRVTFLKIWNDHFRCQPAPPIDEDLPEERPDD
Mark 1 only when Ki stays strictly below 10 µM. Values equal to the cut-off are 0.

Past entries and their recorded results:
compound: Nc1ncnc2c1nc(Br)n2CCO
tested target: Adenosine receptor A1 (Homo sapiens)
answer label: 1
//
compound: Nc1ncnc2c1ncn2C1CCCCCC1
tested target: Adenosine receptor A1 (Homo sapiens)
answer label: 0
//
compound: CC(C)n1c(Br)nc2c(N)ncnc21
tested target: Adenosine receptor A1 (Homo sapiens)
answer label: 1
//
compound: Nc1ncnc2ncn(CCO)c12
tested target: Adenosine receptor A1 (Homo sapiens)
answer label: 0

Lookup: Criterion: Ki strictly below 10 µM. Is it met by Nc1ncnc2c1ncn2C[C@H](O)CO [(S)-DHPA] ?
Found: 0

Lookup: Quick check: does `Cn1cnc2c(N)ncnc21` have Ki under 10 µM?
Found: 0

Lookup: Identify whether the compound `CCCn1cnc2ncnc(N)c21` records Ki below 10 µM.
Found: 0

Lookup: Strictly below 10 µM: is that where Ki of `Nc1ncnc2c1ncn2C1CCC1` sits?
Found: 1

Lookup: Consider the compound `C=CCn1c(Br)nc2c(N)ncnc21` . Is its Ki strictly less than 10 µM?
Found: 1

###

Dear all, this message contains pKi results, target or system Adenosine receptor A1 (Homo sapiens).
Field pKi (float): negative decimal logarithm of the concentration in molar.

compound: CCn1c(Br)nc2c(N)ncnc21
endpoint label: pKi
test result: 6.55
--
compound: Nc1ncnc2c1ncn2C1CCCC1
endpoint label: pKi
test result: 5.00
--
compound: CCn1cnc2c(N)ncnc21
endpoint label: pKi
test result: 5.13
--
compound: Nc1ncnc2c1nc(Br)n2CC(O)CO (configuration not stated)
endpoint label: pKi
test result: 4.80

Proceeding to the next compound to report its pKi.
Lookup: Under Adenosine receptor A1 (Homo sapiens): pKi value of `Nc1ncnc2c1ncn2CCO` ?
Found: 4.54

###

# tested target: Adenosine receptor A2a (Homo sapiens)
# Sequence (P29274 whole entry): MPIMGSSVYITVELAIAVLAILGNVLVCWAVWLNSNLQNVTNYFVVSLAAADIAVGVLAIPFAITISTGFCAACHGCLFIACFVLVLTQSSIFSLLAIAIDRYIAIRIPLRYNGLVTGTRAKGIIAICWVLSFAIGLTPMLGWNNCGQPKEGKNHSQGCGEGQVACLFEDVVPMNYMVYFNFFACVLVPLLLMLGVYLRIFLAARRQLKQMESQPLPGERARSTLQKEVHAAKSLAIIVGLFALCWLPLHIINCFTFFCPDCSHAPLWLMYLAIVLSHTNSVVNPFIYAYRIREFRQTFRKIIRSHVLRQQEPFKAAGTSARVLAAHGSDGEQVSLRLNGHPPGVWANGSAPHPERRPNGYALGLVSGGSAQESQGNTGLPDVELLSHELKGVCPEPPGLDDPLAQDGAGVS
Ki listing for selected compounds.
# unit: nM | format: bare number

compound: CC(O)Cn1c(Br)nc2c(N)ncnc21 (stereo not drawn)
tested target: Adenosine receptor A2a (Homo sapiens)
unit tag: nM
Ki: 1100
//
compound: CCCn1cnc2c(N)ncnc21
tested target: Adenosine receptor A2a (Homo sapiens)
unit tag: nM
Ki: 9600
//
compound: Nc1ncnc2c1ncn2C1CCCCCC1
tested target: Adenosine receptor A2a (Homo sapiens)
unit tag: nM
Ki: 11000
//
compound: Nc1ncnc2c1nc(Br)n2CCO
tested target: Adenosine receptor A2a (Homo sapiens)
unit tag: nM
Ki: 620
//
compound: CCC(C)n1c(Br)nc2c(N)ncnc21 (stereo not drawn)
tested target: Adenosine receptor A2a (Homo sapiens)
unit tag: nM
Ki: 390
//
compound: Nc1ncnc2c1nc(Br)n2C1CCC1
tested target: Adenosine receptor A2a (Homo sapiens)
unit tag: nM
Ki: 660

Attention now shifts to the item below.
Lookup: What measured Ki is associated with CC(O)Cn1cnc2c(N)ncnc21 (stereo not drawn) on Adenosine receptor A2a (Homo sapiens)?
Found: 3100
